# TARGET OF ASSAY: hAPJ receptor (Homo sapiens, UniProt P35414)
# Construct: expressed in transfected cells; host or cells: HEK293, transient transfection with PEI
# Sequence (P35414 1-380): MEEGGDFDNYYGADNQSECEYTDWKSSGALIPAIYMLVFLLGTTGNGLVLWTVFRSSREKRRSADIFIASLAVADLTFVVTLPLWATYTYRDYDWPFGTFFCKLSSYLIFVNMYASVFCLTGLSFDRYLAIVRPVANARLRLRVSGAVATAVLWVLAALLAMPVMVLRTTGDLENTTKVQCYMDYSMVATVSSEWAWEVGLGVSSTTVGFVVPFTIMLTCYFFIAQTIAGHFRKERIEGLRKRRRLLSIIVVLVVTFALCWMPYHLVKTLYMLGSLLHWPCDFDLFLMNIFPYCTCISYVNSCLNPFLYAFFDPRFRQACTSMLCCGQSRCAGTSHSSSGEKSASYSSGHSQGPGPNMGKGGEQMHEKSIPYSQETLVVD
# PROCEDURE SUMMARY: BRET-based β-arrestin2 recruitment assay in HEK293 cells
# Assay type: cell-based
# CONDITION INFO: HEK293; Table V; read-out: ß-arr2 Emax
MEASUREMENT NAME: Emax (%)

{"COMPOUND": "CCCC[C@H](NC(=O)[C@@H]1CCCN1C(=O)CNC(=O)[C@H](CCCCN)NC(=O)[C@@H]1CC=CC[C@H](N)C(=O)N[C@@H](CCCNC(=N)N)C(=O)N[C@@H](CC(C)C)C(=O)N[C@@H](CO)C(=O)N1)C(=O)O [Compound 29, NH2-c[X-R-L-S-X]c-K-G-P-Nle]", "QUANTITATIVE RESULT": 69}
{"COMPOUND": "CCCC[C@H](NC(=O)[C@@H]1CCCN1C(=O)CNC(=O)[C@H](CCCCN)NC(=O)[C@@H]1CCN(S(=O)(=O)c2ccccc2[N+](=O)[O-])CC=CC[C@H](N)C(=O)N[C@@H](CCCNC(=N)N)C(=O)N[C@@H](CC(C)C)C(=O)N[C@@H](CO)C(=O)N1)C(=O)N1CCC[C@H]1C(=O)N[C@@H](Cc1ccccc1)C(=O)O [Compound 28, NH2-c[X-R-L-S-Alnb]c-K-G-P-Nle-P-F]", "QUANTITATIVE RESULT": 82}
{"COMPOUND": "CCCC[C@H](NC(=O)[C@@H]1CCCN1C(=O)CNC(=O)[C@H](CCCCN)NC(=O)[C@@H]1CCN(C)CC=CC[C@H](NC(=O)[C@H](CCCNC(=N)N)NC(=O)[C@@H]2CCC(=O)N2)C(=O)N[C@@H](CCCNC(=N)N)C(=O)N[C@@H](CC(C)C)C(=O)N[C@@H](CO)C(=O)N1)C(=O)N1CCC[C@H]1C(=O)N[C@@H](Cc1ccccc1)C(=O)O [Compound 19, Pyr-R-c[X-R-L-S-Almb]c-K-G-P-Nle-P-F]", "QUANTITATIVE RESULT": 90}
